- Tgt: UniProt P08173
- Sequence (P08173 1-479): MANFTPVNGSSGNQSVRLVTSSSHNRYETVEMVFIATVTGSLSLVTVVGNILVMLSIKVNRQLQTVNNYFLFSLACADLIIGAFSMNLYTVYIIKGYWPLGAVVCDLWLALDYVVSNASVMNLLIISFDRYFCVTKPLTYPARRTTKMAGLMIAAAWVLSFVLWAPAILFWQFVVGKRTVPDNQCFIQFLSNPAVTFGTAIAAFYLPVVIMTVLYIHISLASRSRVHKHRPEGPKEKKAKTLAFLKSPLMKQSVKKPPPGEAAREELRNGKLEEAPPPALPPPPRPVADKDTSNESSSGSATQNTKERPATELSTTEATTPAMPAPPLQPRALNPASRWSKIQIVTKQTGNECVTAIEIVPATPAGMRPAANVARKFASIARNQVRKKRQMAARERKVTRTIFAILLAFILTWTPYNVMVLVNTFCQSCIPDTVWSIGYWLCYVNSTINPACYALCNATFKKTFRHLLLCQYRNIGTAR
- Method notes: human FLIPR-based M4 PAM assay (Ca2+ mobilization, CHO-K1 cells with human M4 receptor and Gαqi5)
- Measurement conditions: acetylcholine at 20% of maximum response, read-out: M4 PAM IP
# pEC50 annotations
Give only the number. pEC50 is defined as minus log10 of concentration in molar units.

Sample records with pEC50:
Cc1c(N2CCC(Oc3cnc4c(c3)COC4)CC2)nc2c(c1C)C(=O)NC2 | 6.36
COc1ccc(OC2CCN(c3nc4c(cc3C=O)C(=O)NC4)CC2)cn1 | 6.49
Cc1cc2c(nc1N1CCC(OC[C@@]3(C)C[C@@H]3F)CC1)CNC2=O (single isomer, unassigned) [Example 160D] | 7.43

For Cc1cc2c(nc1N1CC[C@H](OCC3(C)CC3)C(F)(F)C1)CNC2=O [Example 171B] , write its pEC50.
7.85

###

EC50 values by entry
- Tgt: human M4 muscarinic acetylcholine receptor (Homo sapiens)
- Method notes: human FLIPR-based M4 PAM assay (Ca2+ mobilization, CHO-K1 cells with human M4 receptor and Gαqi5)
- Measurement conditions: acetylcholine at 20% of maximum response, read-out: M4 PAM IP
Answer with a number only, understood to be in nM.

Cc1cc2c(nc1N1CCC(Oc3ccc4c(c3)CCOCC4)CC1)CNC2=O [Example 321B] | 91
Cc1cc2c(nc1N1CCC(Oc3ccc4c(c3)OCCO4)CC1)CNC2=O | 30
Cc1cc2c(nc1N1CC[C@@H](Oc3ccc4c(c3)CCOC4)[C@@H](F)C1)CNC2=O [Example 178A] | 18

Shifting focus to the compound that follows.
Report measured EC50; entry is Cc1c(N2CCC(Oc3ccc4c(c3)COC4)CC2)nc2c(c1C)C(=O)N(CCO)C2 [Example 264A]
38

###

- Tgt: human M4 muscarinic acetylcholine receptor (Homo sapiens, UniProt P08173)
- Method notes: human FLIPR-based M4 PAM assay (Ca2+ mobilization, CHO-K1 cells with human M4 receptor and Gαqi5)
- Measurement conditions: acetylcholine at 20% of maximum response, read-out: M4 PAM IP
Quantity measured: EC50 (nM)
Report the figure in nM without appending any unit label.

These solved cases illustrate the format of a correct answer.
Cc1cc2c(nc1N1CC[C@@H](Oc3ccc4c(c3)COC4)[C@H](F)C1)CN(CCO)C2=O [Example 257] | 84
CCc1cc2c(nc1N1CCC(Oc3ccc(OC)nc3)CC1)CNC2=O [Example 228] | 86
Cc1c(N2CCC(Oc3ccc4c(c3)COC4)CC2)nc2c(c1C)C(=O)N([C@@H](C)CO)C2 [Example 266D] | 43

Consider the molecule COCCOc1ccc(O[C@H]2CCN(c3nc4c(cc3C)C(=O)NC4)C[C@H]2F)cn1 (stereo in doubt) [Example 61] and give its recorded EC50.
135

State, in one line, measured EC50 of Cc1nc2ccc(OC3CCN(c4nc5c(cc4C)C(=O)NC5)CC3)cc2s1 [Example 122]
2110

// Input: Cc1cc2c(nc1N1CC[C@H](Oc3ccc4c(cnn4C)c3)[C@@H](F)C1)CNC2=O [Example 24] . Output its EC50 only.
167

Indicate the recorded EC50 value for this molecule: Cc1cc2c(nc1N1CCC(Oc3cnn(CC4CC4)c3)CC1)CNC2=O [Example 321A]
434

Indicate its recorded EC50; the molecule in question is CCc1cc2c(nc1N1CCC(Oc3ccc4c(c3)COCC4)CC1)CN(CCO)C2=O [Example 267A]
102
